Target: T1, 4H2223-bH
T1 chain: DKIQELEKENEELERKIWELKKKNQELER
Experiment: two-hybrid library CCNG1;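 note: natural log of median RNA to DNA barcode read ratio; higher means stronger binding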
result type: interaction score

Use these answered entries as a reference point.
DKIQELEKEIEELKRENWELEKKIQELKR [4H2134-bH] ... -0.653
DKIQELEKENEELERKIWELKKKNQELER [4H2223-bH] ... -0.882
DKIQELEKEIEELKRENWELKKKNQELER [4H2143-bH] ... -0.434

P: DEIQELEKENEELERKNWELEKKIQELKR [4H182-bH]
Q: DEIQELEKEIEELKRKNWELKKEIQELER [4H121-bH]
// compare measured interaction score between P and Q ; output the lower one Answer by stating the label of the chosen item. P
